- testDetails: In vitro permeability experiment, MDCK wild type cells
- conditionSummary: dog, Papp A-B Sample - 02, MDCK-Wild type, A-B, 5 μM, replicate 02
- Description: In vitro passive permeability or the ability to serve as a P-glycoprotein (P-gp) transport substrate was tested using MDCK cells (MDCK wild type) or MDCK cells stably transduced with MDRI (MDCK-MDRI), respectively. The permeability experiment was performed in duplicate in a transwell system at a single concentration (5 μM). […]
property: Papp A→B at 90 min, 5 µM
Enter the number, and then the unit.

Q: Specify Papp A→B at 90 min, 5 µM for COCCc1ccc(OCC(O)CNC(C)C)cc1 (stereo not shown) and stop.
A: 22.2 ×10⁻⁶ cm/s

// data source = patent US20260001879A1
